target: G-protein coupled receptor 35 (Homo sapiens); experiment: Agonist activity at GPR35 in human U20S cells expressing beta-lactamase and GPR35-GA14-VP16 transcription factor fusion protein assessed as transcriptional activation after 5 hrs by tango beta-arrestin translocation reporter assay; format: functional, cell-based, U2OS; conditions: read-out: EC50
pEC50: −log10 of the molar value.

{"columns": ["molecule", "pEC50"],
 "data": [
  ["CCCCCCCCCCCc1c(C(=O)O)sc2c(Br)csc12", 4.64],
  ["CC1=C(C#N)C(=C(C#N)C#N)OC1(c1ccccc1)C(F)(F)F (stereo not given)", "< 4.30"],
  ["Cc1c(C(=O)O)sc2c(Br)csc12", 4.82],
  ["CCCCCCc1csc2cc(C(=O)O)sc12", "< 4.30"],
  ["CC1=C(C#N)C(=C(C#N)C#N)OC1(C)c1ccc(Cl)c(Cl)c1 (stereo not given)", 4.99],
  ["CCCCCCc1c(C(=O)O)sc2ccsc12", "< 4.30"],
  ["CC1=C(C#N)C(=C(C#N)C#N)OC1(C)C", "< 4.30"],
  ["CCCCCCCCc1c(C(=O)O)sc2c(Br)csc12", "< 4.30"],
  ["CC1=C(C#N)C(=C(C#N)C#N)OC12CCCCC2", "< 4.30"],
  ["Cc1csc2c1sc1cc(C(=O)O)sc12", "< 4.30"]
]}

====

target: G-protein coupled receptor 35 (Homo sapiens); assay: Agonist activity at GPR35 in human HT-29 cells after 1 hr by dynamic mass redistribution assay in presence of 64 uM GPR35 antagonist SPB05142; assay type: functional, cell-based
Activity calls are given as the source filed them. The calls are words filed in the database; no cut-off is given here.
readout label: Activity

{"columns": ["compound", "readout label", "endpoint value"],
 "data": [
  ["CC1=C(C#N)C(=C(C#N)C#N)OC1(C)c1ccc(Cl)c(Cl)c1Cl (stereo not drawn)", "Activity", "Active"],
  ["CCCCCCCCCCCc1c(C(=O)O)sc2c(Br)csc12", "Activity", "inactive"],
  ["CC1=C(C#N)C(=C(C#N)C#N)OC1(c1ccccc1)C(F)(F)F (stereo not drawn)", "Activity", "inactive"],
  ["Cc1csc2c1sc1cc(C(=O)O)sc12", "Activity", "Active"],
  ["CC1=C(C#N)C(=C(C#N)C#N)OC1(C)C", "Activity", "inactive"],
  ["CC1=C(C#N)C(=C(C#N)C#N)OC12c1ccccc1-c1ccccc12", "Activity", "inactive"],
  ["CCCCCCc1csc2cc(C(=O)O)sc12", "Activity", "inactive"],
  ["CCCCCCc1c(C(=O)O)sc2ccsc12", "Activity", "Active"],
  ["CCCCCCCCc1c(C(=O)O)sc2c(Br)csc12", "Activity", "inactive"],
  ["Cc1c(C(=O)O)sc2c(Br)csc12", "Activity", "inactive"],
  ["CC1=C(C#N)C(=C(C#N)C#N)OC1(C)c1ccc(Cl)c(Cl)c1 (stereo not drawn)", "Activity", "inactive"],
  ["CC1=C(C#N)C(=C(C#N)C#N)OC12CCCCC2", "Activity", "Active"],
  ["CCCCCCCCCCCCCc1c(C(=O)O)sc2c(Br)csc12", "Activity", "inactive"]
]}

====

target: G-protein coupled receptor 35 (Homo sapiens); experiment: Agonist activity at GPR35 in human HT-29 cells after 1 hr by dynamic mass redistribution assay relative to zaprinast; assay type: functional, cell-based; parameters: concentration or dose not given beside the values

{"columns": ["molecule", "study system", "Activity / %"],
 "data": [
  ["Cc1c(C(=O)O)sc2c(Br)csc12", "G-protein coupled receptor 35 (Homo sapiens)", 105],
  ["CCCCCCCCc1c(C(=O)O)sc2c(Br)csc12", "G-protein coupled receptor 35 (Homo sapiens)", 103],
  ["CC1=C(C#N)C(=C(C#N)C#N)OC1(C)c1ccc(Cl)c(Cl)c1 (stereo not drawn)", "G-protein coupled receptor 35 (Homo sapiens)", 97],
  ["CCCCCCc1csc2cc(C(=O)O)sc12", "G-protein coupled receptor 35 (Homo sapiens)", 103],
  ["Cc1csc2c1sc1cc(C(=O)O)sc12", "G-protein coupled receptor 35 (Homo sapiens)", 118],
  ["CC1=C(C#N)C(=C(C#N)C#N)OC12CCCCC2", "G-protein coupled receptor 35 (Homo sapiens)", 106],
  ["CC1=C(C#N)C(=C(C#N)C#N)OC1(C)c1ccc(Cl)c(Cl)c1Cl (stereo not drawn)", "G-protein coupled receptor 35 (Homo sapiens)", 90],
  ["CCCCCCCCCCCc1c(C(=O)O)sc2c(Br)csc12", "G-protein coupled receptor 35 (Homo sapiens)", 87],
  ["CC1=C(C#N)C(=C(C#N)C#N)OC1(c1ccccc1)C(F)(F)F (stereo not drawn)", "G-protein coupled receptor 35 (Homo sapiens)", 99],
  ["CCCCCCc1c(C(=O)O)sc2ccsc12", "G-protein coupled receptor 35 (Homo sapiens)", 99],
  ["CCCCCCCCCCCCCc1c(C(=O)O)sc2c(Br)csc12", "G-protein coupled receptor 35 (Homo sapiens)", 77],
  ["CC1=C(C#N)C(=C(C#N)C#N)OC1(C)C", "G-protein coupled receptor 35 (Homo sapiens)", 87],
  ["CC1=C(C#N)C(=C(C#N)C#N)OC12c1ccccc1-c1ccccc12", "G-protein coupled receptor 35 (Homo sapiens)", 90]
]}

====

target: G-protein coupled receptor 35 (Homo sapiens); experiment: Agonist activity at GPR35 in human HT-29 cells after 1 hr by dynamic mass redistribution assay; format: functional, cell-based
pEC50: −log10 of the molar value.
Everything with pEC50 lower than 5 is label 0; everything else, including exactly 5, is label 1.

{"columns": ["compound", "class label"],
 "data": [
  ["CC1=C(C#N)C(=C(C#N)C#N)OC12CCCCC2", "label 0"],
  ["CC1=C(C#N)C(=C(C#N)C#N)OC1(c1ccccc1)C(F)(F)F (stereo not drawn)", "label 1"],
  ["CCCCc1ccc(C2(C)OC(=C(C#N)C#N)C(C#N)=C2C)cc1 (stereo not drawn)", "label 0"],
  ["Cc1c(C(=O)O)sc2c(Br)csc12", "label 1"],
  ["CCCCCCc1c(C(=O)O)sc2ccsc12", "label 1"],
  ["CCCCCCCCCCCc1c(C(=O)O)sc2c(Br)csc12", "label 1"],
  ["CC1=C(C#N)C(=C(C#N)C#N)OC1(C)C", "label 0"],
  ["CCCCCCCCCCCCCCCc1c(C(=O)O)sc2c(Br)csc12", "label 1"],
  ["O=C(O)c1cc2sccc2s1", "label 0"],
  ["CC1=C(C#N)C(=C(C#N)C#N)OC12c1ccccc1-c1ccccc12", "label 1"],
  ["CC1=C(C#N)C(=C(C#N)C#N)OC1(C)c1ccc(F)cc1F (stereo not drawn)", "label 0"],
  ["CC1=C(C#N)C(=C(C#N)C#N)OC1(C)c1ccc(Cl)c(Cl)c1 (stereo not drawn)", "label 1"],
  ["Cc1csc2c1sc1cc(C(=O)O)sc12", "label 1"],
  ["CCCCCCCCCCCCCc1c(C(=O)O)sc2c(Br)csc12", "label 1"],
  ["CC1=C(C#N)C(=C(C#N)C#N)OC1(C)c1c(F)c(F)c(F)c(F)c1F (stereo not drawn)", "label 1"],
  ["CCCCCCCCc1c(C(=O)O)sc2c(Br)csc12", "label 1"]
]}

====

molecular target: G-protein coupled receptor 35 (Homo sapiens, UniProt Q9HC97); test: Agonist activity at GPR35 in human HT-29 cells after 1 hr by dynamic mass redistribution assay in presence of GPR35 antagonist SPB05142; format: functional, cell-based
Sequence (Q9HC97 whole entry, the tested form may be a part): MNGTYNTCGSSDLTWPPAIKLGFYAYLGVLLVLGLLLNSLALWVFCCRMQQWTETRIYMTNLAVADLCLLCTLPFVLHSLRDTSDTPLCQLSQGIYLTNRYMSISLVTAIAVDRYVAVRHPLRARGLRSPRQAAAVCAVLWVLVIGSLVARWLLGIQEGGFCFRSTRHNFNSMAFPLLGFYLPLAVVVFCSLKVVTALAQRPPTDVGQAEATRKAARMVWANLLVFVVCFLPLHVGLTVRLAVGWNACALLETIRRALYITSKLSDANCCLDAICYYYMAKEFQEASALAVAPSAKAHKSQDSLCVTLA
Calls of active or inactive are those of the source. The calls are words filed in the database; no cut-off is given here.
Outcomes: active, inactive

{"columns": ["compound", "class label"],
 "data": [
  ["CC1=C(C#N)C(=C(C#N)C#N)OC1(C)c1ccc(Cl)c(Cl)c1 (stereo not drawn)", "inactive"],
  ["CC1=C(C#N)C(=C(C#N)C#N)OC1(C)c1ccc(Cl)c(Cl)c1Cl (stereo not drawn)", "active"],
  ["Cc1c(C(=O)O)sc2c(Br)csc12", "inactive"],
  ["Cc1csc2c1sc1cc(C(=O)O)sc12", "active"],
  ["CCCCCCc1c(C(=O)O)sc2ccsc12", "active"],
  ["CC1=C(C#N)C(=C(C#N)C#N)OC12c1ccccc1-c1ccccc12", "inactive"],
  ["CC1=C(C#N)C(=C(C#N)C#N)OC1(C)C", "inactive"],
  ["CC1=C(C#N)C(=C(C#N)C#N)OC1(c1ccccc1)C(F)(F)F (stereo not drawn)", "inactive"],
  ["CCCCCCCCCCCCCc1c(C(=O)O)sc2c(Br)csc12", "inactive"],
  ["CCCCCCCCc1c(C(=O)O)sc2c(Br)csc12", "inactive"],
  ["CC1=C(C#N)C(=C(C#N)C#N)OC12CCCCC2", "active"],
  ["CCCCCCc1csc2cc(C(=O)O)sc12", "inactive"],
  ["CCCCCCCCCCCc1c(C(=O)O)sc2c(Br)csc12", "inactive"]
]}
